TARGET: heparanase (H53) (Homo sapiens, UniProt Q9Y251)
Construct: The 45 kDa major subunit and the 8 kDa small subunit hetero-complex to form the 53 kDa active form of heparanase
Sequence (Q9Y251 36-109 limits assumed): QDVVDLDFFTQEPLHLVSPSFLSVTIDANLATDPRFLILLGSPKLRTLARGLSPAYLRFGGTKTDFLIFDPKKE
Sequence (Q9Y251 158-543 limits assumed): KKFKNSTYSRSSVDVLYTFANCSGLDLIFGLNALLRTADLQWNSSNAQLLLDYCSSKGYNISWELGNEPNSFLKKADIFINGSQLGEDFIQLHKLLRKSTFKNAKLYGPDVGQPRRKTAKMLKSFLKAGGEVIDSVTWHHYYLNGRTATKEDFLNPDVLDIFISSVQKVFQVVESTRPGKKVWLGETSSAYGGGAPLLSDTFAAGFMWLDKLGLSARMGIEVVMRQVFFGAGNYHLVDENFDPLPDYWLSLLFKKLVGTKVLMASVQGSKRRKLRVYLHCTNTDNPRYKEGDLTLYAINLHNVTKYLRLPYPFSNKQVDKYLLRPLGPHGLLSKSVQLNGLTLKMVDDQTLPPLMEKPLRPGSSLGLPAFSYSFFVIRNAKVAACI
MEASUREMENT_DESCRIPTION: Heparanase (H53) assay (DMB assay)
CONDITION_SET: inhibition of heparanase activity, DMB assay; NI = no inhibition
PROPERTY_LABEL: IC50 (µM)

{"columns": ["COMPOUND", "PROPERTY_LABEL", "UOM", "MEASURED_RESULT"],
 "data": [
  ["CC(C)(CC(=O)O)CN1C(=O)c2cc3oc(-c4ccc(Cl)cc4)cc3n2C1=S [Compound 11]", "IC50", "µM", 37],
  ["CN(CC(=O)O)C(=O)CC(C)(C)CN1C(=O)c2cc3oc(-c4ccc(Cl)cc4)cc3n2C1=S [Compound 21]", "IC50", "µM", 66.2],
  ["O=C(O)CCCN1C(=O)c2cc3oc(-c4cccc(C(F)(F)F)c4)cc3n2C1=S [Compound 26]", "IC50", "µM", 10.2],
  ["O=C(O)CCCN1C(=O)c2cc3oc(-c4ccc([N+](=O)[O-])cc4)cc3n2C1=S [Compound 2]", "IC50", "µM", 9],
  ["CCOC(=O)CCCN1C(=O)c2cc3sc(-c4ccc([N+](=O)[O-])cc4)cc3n2C1=S [Compound 31]", "IC50", "µM", 74],
  ["O=C(O)CCCN1C(=O)c2cc3oc(-c4ccc(Cl)cc4)cc3n2C1=S [Compound 5]", "IC50", "µM", 11.8],
  ["CC(C)(CC(=O)N1CCC[C@H]1C(=O)O)CN1C(=O)c2cc3oc(-c4ccc(Cl)cc4)cc3n2C1=S [Compound 22]", "IC50", "µM", 34.8],
  ["O=C(O)CCCN1C(=O)c2cc3sc(-c4ccc([N+](=O)[O-])cc4)cc3n2C1=S [Compound 32]", "IC50", "µM", 27]
]}

Ref: patent US7795255B2
